target entity: CDK2/Cyclin E1 full length (Homo sapiens (Human))
assay summary: CDK2/Cyclin E1 full length mobility shift assay
quantity name: pKi
Lab note: report pKi as minus log10 of the concentration in molar units, number only.

COCc1cc(C(=O)Nc2cc([C@H]3CC[C@@H](OC(=O)NC(C)CC(F)(F)F)C3)[nH]n2)n(C)n1 (single isomer, unassigned) [Example 9]    8.94
COC[C@H](C)NC(=O)O[C@@H]1CC[C@H](c2cc(NC(=O)c3cc(OC)nn3C)n[nH]2)C1    8.84

stdin: Return reported pKi; argument: CCCNC(=O)O[C@@H]1CC[C@H](c2cc(NC(=O)c3ccnn3CCN(C)C)n[nH]2)C1
stdout: 8.36

stdin: Same question for CCCNC(=O)O[C@H]1CC[C@@H](c2cc(NC(=O)Cc3ccc(OC)nc3)n[nH]2)C1 please.
stdout: 9.60

stdin: Item: C[C@H]1CCCN1C(=O)O[C@@H]1CC[C@H](c2cc(NC(=O)Cc3cnco3)n[nH]2)C1
stdout: 9.40

stdin: Here is the next compound: CC(C)(C)NC(=O)O[C@@H]1CC[C@H](c2cc(NC(=O)Cc3ccc(F)cn3)n[nH]2)C1
stdout: 9.19

###

target entity: CDK2/Cyclin E1 full length (Homo sapiens (Human))
assay summary: CDK2/Cyclin E1 full length mobility shift assay
quantity name: Ki (nM)
Express the result in nM but write the number alone.

stdin: # query: Ki of entry CC[C@H](C)NC(=O)O[C@@H]1CC[C@H](c2cc(NC(=O)Cc3cn4ccc(C)nc4n3)n[nH]2)C1 [Example 357]
stdout: 4.08

###

target entity: GSK3β (H350L) (Homo sapiens (Human), UniProt P49841)
Sequence (P49841 whole entry, stated change not applied): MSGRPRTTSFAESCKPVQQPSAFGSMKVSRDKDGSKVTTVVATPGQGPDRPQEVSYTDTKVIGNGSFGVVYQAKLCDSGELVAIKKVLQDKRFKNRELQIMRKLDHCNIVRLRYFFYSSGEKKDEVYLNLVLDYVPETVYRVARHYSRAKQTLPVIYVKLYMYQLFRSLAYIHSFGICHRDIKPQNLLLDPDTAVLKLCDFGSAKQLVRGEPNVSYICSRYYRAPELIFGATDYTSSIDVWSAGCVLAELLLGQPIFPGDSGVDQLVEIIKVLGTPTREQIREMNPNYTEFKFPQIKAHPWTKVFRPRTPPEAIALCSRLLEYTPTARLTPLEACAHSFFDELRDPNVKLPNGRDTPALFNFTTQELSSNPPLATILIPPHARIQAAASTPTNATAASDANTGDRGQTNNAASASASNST
setup conditions: read-out: GSK3β Ki
quantity name: Ki (nM)
Kindly answer with a numeric value in nM, unit omitted.

The cases that follow already have their Ki on record.
CC[C@H](C)NC(=O)O[C@@H]1CC[C@H](c2cc(NC(=O)Cc3ccc4ncc(C)n4n3)n[nH]2)C1 [Example 46]    20.6
CC[C@H](C)NC(=O)O[C@@H]1CC[C@H](c2cc(NC(=O)Cc3cccc4c3CN(C)C4=O)n[nH]2)C1 [Example 361]    25.6

stdin: # Ki lookup, item COc1cc(CC(=O)Nc2cc([C@H]3CC[C@@H](OC(=O)NCCC(F)(F)F)C3)[nH]n2)ccn1 [Example 102]
stdout: 9.9

stdin: Field entry: CC[C@H](C)NC(=O)O[C@@H]1CC[C@H](c2cc(NC(=O)Cc3cnc4ncnn4c3)n[nH]2)C1 [Example 39]
stdout: 23.9

stdin: Now try COCCn1nccc1C(=O)Nc1cc([C@H]2CC[C@@H](OC(=O)NC(C)(C)C)C2)[nH]n1 [Example 308] .
stdout: 89.1

###

target entity: CDK2/Cyclin E1 full length (Homo sapiens (Human), UniProt P24941)
assay summary: CDK2/Cyclin E1 full length mobility shift assay
quantity name: pKi
Reminder that pKi is minus the log10 of a molar concentration.

The following compounds have reported results that may help.
COCc1cc(C(=O)Nc2cc([C@H]3CC[C@@H](OC(=O)NC(C)(C)C)C3)[nH]n2)n(C)n1    9.42
C[C@@H](CC(F)(F)F)NC(=O)O[C@@H]1CC[C@H](c2cc(NC(=O)Cc3cnn(C)c3)n[nH]2)C1    10.00

stdin: Which measured pKi value corresponds to CCC(C)(C)NC(=O)O[C@@H]1CC[C@H](c2cc(NC(=O)Cc3cnn(C)c3)n[nH]2)C1 ?
stdout: 9.96

stdin: Now the compound COc1cc(CC(=O)Nc2cc([C@H]3CC[C@@H](OC(=O)N4C[C@@H](OC)[C@@H]4C)C3)[nH]n2)ccn1
stdout: 9.38

stdin: Moving on to CC[C@H](C)NC(=O)O[C@@H]1CC[C@H](c2cc(NC(=O)Cc3cncc(C(F)(F)F)n3)n[nH]2)C1
stdout: 9.08

stdin: Param item: COc1cnc(CC(=O)Nc2cc([C@H]3CC[C@@H](OC(=O)N4[C@@H](C)C[C@@H]4C)C3)[nH]n2)cn1
stdout: 8.98

stdin: Let us now turn to CCCNC(=O)O[C@H]1CC[C@@H](c2cc(NC(=O)Cc3ccccc3OCCN)n[nH]2)C1
stdout: 9.31

stdin: Now consider Cc1cc(CC(=O)Nc2cc([C@H]3CC[C@@H](OC(=O)N[C@@H](C)C4CC4)C3)[nH]n2)on1 and answer again.
stdout: 9.46

stdin: Also, CC(C)NC(=O)O[C@@H]1CC[C@H](c2cc(NC(=O)Cc3cccc4ncsc34)n[nH]2)C1 please.
stdout: 9.22

stdin: Check Cc1ncc(CC(=O)Nc2cc([C@@H]3CC[C@H](OC(=O)NC4CCOCC4)C3)[nH]n2)s1 too.
stdout: 8.63

stdin: Check COc1cc(CC(=O)Nc2cc([C@@H]3CC[C@H](OC(=O)NCC4CCOCC4)C3)[nH]n2)ccn1 too.
stdout: 8.49

stdin: Again, but for Cc1ncc(CC(=O)Nc2cc([C@H]3CC[C@@H](OC(=O)N4CCC[C@@H]4C)C3)[nH]n2)s1
stdout: 9.68

###

Readings of Ki for the listed compounds
target entity: GSK3β (H350L) (Homo sapiens (Human), UniProt P49841)
setup conditions: read-out: GSK3β Ki
I'd appreciate it if you included the unit after the number.

COc1ccc(CC(=O)Nc2cc([C@H]3CC[C@@H](OC(=O)N(C)C(C)C)C3)[nH]n2)cn1    2.89 nM
COc1cc(CC(=O)Nc2cc([C@@H]3CC[C@H](OC(=O)N[C@H]4CC[C@H](O)CC4)C3)[nH]n2)ccn1    3.58 nM

stdin: Please look up its Ki: CCCNC(=O)O[C@@H]1CC[C@H](c2cc(NC(=O)Cc3ccc(OC)nc3)n[nH]2)C1
stdout: 9.32 nM

stdin: Item: CC[C@H](C)CNC(=O)O[C@@H]1CC[C@H](c2cc(NC(=O)Cc3cnc(C)s3)n[nH]2)C1
stdout: 12.6 nM

stdin: What would you report for Cc1nnc(CC(=O)Nc2cc([C@H]3CC[C@@H](OC(=O)NC(C)(C)C)C3)[nH]n2)o1 ?
stdout: 72 nM

stdin: Query Cn1ccc(CC(=O)Nc2cc([C@H]3CC[C@@H](OC(=O)N4CCCC4(C)C)C3)[nH]n2)n1 [Example 639] next
stdout: 6.34 nM

stdin: Same question, COc1cc(CC(=O)Nc2cc([C@H]3CC[C@@H](OC(=O)NC(C)(C)C)C3)[nH]n2)c(OC)cn1 this time
stdout: 133 nM

###

target entity: CDK2/Cyclin E1 full length (Homo sapiens (Human))
assay summary: CDK2/Cyclin E1 full length mobility shift assay
The following molecules are listed with their measured pKi values.
Would you please state pKi, meaning minus log10 of the concentration in mol/L, as a bare number?

Worked cases, pKi given:
CCNC(=O)O[C@@H]1CC[C@H](c2cc(NC(=O)Cc3ccc(F)cc3)n[nH]2)C1 [Example 228]    8.74
CCC(CO)CNC(=O)O[C@@H]1CC[C@H](c2cc(NC(=O)Cc3cnc(C)s3)n[nH]2)C1 (single isomer, unassigned) [Example 528]    8.95
CCCNC(=O)O[C@@H]1CC[C@H](c2cc(NC(=O)Cc3cccc4ncsc34)n[nH]2)C1 [Example 196]    8.84

stdin: # get_value(readout= pKi, system= CDK2/Cyclin E1 full length (Homo sapiens (Human))) for CCC(CO)CNC(=O)O[C@@H]1CC[C@H](c2cc(NC(=O)Cc3cc(F)cc(F)c3)n[nH]2)C1 (single isomer, unassigned) [Example 537]
stdout: 8.87

stdin: Cc1coc(CC(=O)Nc2cc([C@H]3CC[C@@H](OC(=O)NC4(C)CC4)C3)[nH]n2)n1 [Example 422] ?
stdout: 9.26

###

target entity: CDK2/Cyclin E1 full length (Homo sapiens (Human))
assay summary: CDK2/Cyclin E1 full length mobility shift assay
quantity name: log10 Ki (log10 of the value in nM)
Hello, just confirming the data are log10 of Ki with units of nM.

CC1(NC(=O)O[C@@H]2CC[C@H](c3cc(NC(=O)Cc4ccccc4)n[nH]3)C2)CCOC1 (single isomer, unassigned) [Example 125]    -0.47
C[C@@H]1COCCN1C(=O)O[C@@H]1CC[C@H](c2cc(NC(=O)Cc3cc(F)cc(F)c3)n[nH]2)C1    -0.43
CC(CC(F)(F)F)NC(=O)O[C@@H]1CC[C@H](c2cc(NC(=O)Cc3ccon3)n[nH]2)C1 (single isomer, unassigned) [Example 64]    -0.85
CC[C@H](C)NC(=O)O[C@@H]1CC[C@H](c2cc(NC(=O)Cc3cc(OC)ncc3OC)n[nH]2)C1    0.22
COc1cnc(CC(=O)Nc2cc([C@H]3CC[C@@H](OC(=O)N[C@H](C)C4CC4)C3)[nH]n2)cn1    0.07
Cc1cnc(CC(=O)Nc2cc([C@H]3CC[C@@H](OC(=O)NC(C)(C)CC(F)(F)F)C3)[nH]n2)o1    -0.60
CC(C)NC(=O)O[C@@H]1CC[C@H](c2cc(NC(=O)Cc3cnc(C(F)(F)F)cn3)n[nH]2)C1    0.35

stdin: Provide value of log10 Ki for this record tested with CDK2/Cyclin E1 full length (Homo sapiens (Human)): CC[C@H](C)NC(=O)O[C@@H]1CC[C@H](c2cc(NC(=O)Cc3ncc(C)s3)n[nH]2)C1
stdout: -0.19
